- Target Or Test System: MRP1 (ABCC1, Homo sapiens)
- Assay Procedure: In vitro for its inhibitory activity against MRP1-transfected HeLa-T5 cell line in the presence of doxorubicin
Endpoint: EC50

Compound Structure: Cc1onc2c1c(=O)n(-c1cccc(CC(=O)Nc3ccc(C(F)(F)F)cc3)c1)c1cccc(Cl)c21
Endpoint: EC50
Reported Measurement: > 10000 nM
--
Compound Structure: COc1cc(C(=O)NCc2cccc(-n3c(=O)c4c(C)onc4c4c(Cl)cccc43)c2)cc(OC)c1OC
Endpoint: EC50
Reported Measurement: 1130 nM
--
Compound Structure: Cc1ccc(NC(=O)Cc2cccc(-n3c(=O)c4c(C)onc4c4c(Cl)cccc43)c2)cc1
Endpoint: EC50
Reported Measurement: 3700 nM
--
Compound Structure: Cc1onc2c1c(=O)n(-c1cccc(CC(=O)Nc3ccccc3)c1)c1cccc(Cl)c21
Endpoint: EC50
Reported Measurement: 2300 nM
--
Compound Structure: COc1cc(NC(=O)Cc2cccc(-n3c(=O)c4c(C)onc4c4c(Cl)cccc43)c2)cc(OC)c1O
Endpoint: EC50
Reported Measurement: 1300 nM
--
Compound Structure: Cc1onc2c1c(=O)n(-c1cccc(CC(=O)Nc3ccc(C#N)cc3)c1)c1cccc(Cl)c21
Endpoint: EC50
Reported Measurement: 4900 nM
